Listed here are molecules together with their documented inhibition at 10 µM.
# TARGET: Monoamine oxidase A (Homo sapiens)
# Sequence (P21397 whole entry): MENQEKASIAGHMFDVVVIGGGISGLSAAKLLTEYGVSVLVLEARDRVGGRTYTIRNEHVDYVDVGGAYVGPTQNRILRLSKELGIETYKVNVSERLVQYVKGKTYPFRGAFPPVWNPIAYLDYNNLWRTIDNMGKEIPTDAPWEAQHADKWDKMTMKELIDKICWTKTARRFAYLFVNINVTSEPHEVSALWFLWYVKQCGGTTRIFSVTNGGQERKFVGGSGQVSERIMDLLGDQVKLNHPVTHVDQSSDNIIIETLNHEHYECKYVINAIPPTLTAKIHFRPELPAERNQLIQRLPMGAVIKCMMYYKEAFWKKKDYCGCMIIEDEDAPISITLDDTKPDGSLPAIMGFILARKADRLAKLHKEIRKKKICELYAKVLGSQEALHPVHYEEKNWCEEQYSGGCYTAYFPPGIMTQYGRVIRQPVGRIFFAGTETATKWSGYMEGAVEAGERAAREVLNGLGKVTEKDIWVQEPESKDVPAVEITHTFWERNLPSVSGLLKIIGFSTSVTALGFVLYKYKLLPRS
# PROCEDURE DETAILS: Inhibitory potency against Monoamine oxidase A at 10 uM
# output: bare number, implied unit %

Guide cases for inhibition at 10 µM, answers given:
C/C(=C\COc1ccc2c(C)c(C)c(=O)oc2c1)C1=CC(=O)C(C)(C)O1 :: 37
CC(=O)/C=C/C=C/COc1ccc2ccc(=O)oc2c1 :: 26

Now examine the next entry.
Enquiry: Quick one: inhibition at 10 µM for `Cc1cc(=O)oc2cc(OC/C=C/C3=CC(=O)C(C)(C)O3)ccc12` ?
Return: 27

The measurements presented in this section are drawn from ChEMBL document CHEMBL1135004.
